Biological target: Isocitrate lyase (Magnaporthe oryzae (strain 70-15 / FGSC 8958) (Rice blast fungus)(Pyricularia oryzae))
Sequence (P0CT06 whole entry): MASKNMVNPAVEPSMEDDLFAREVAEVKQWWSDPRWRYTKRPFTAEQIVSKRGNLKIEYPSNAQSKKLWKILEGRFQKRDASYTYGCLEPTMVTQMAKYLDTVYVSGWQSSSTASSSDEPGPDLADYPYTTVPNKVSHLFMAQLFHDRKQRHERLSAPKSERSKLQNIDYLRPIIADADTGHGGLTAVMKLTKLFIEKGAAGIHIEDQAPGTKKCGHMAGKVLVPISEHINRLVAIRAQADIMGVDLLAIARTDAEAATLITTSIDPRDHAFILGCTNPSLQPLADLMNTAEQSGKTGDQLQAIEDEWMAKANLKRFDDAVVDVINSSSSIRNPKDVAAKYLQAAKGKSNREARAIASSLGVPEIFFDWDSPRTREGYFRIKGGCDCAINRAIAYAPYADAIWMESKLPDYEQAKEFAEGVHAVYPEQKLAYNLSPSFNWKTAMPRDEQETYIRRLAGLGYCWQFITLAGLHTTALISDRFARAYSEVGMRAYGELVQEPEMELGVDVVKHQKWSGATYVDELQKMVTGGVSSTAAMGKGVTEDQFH
Assay: Inhibition of Magnaporthe grisea isocitrate lyase
observable: pIC50
Expect pIC50 as a plain number equal to -log10 of the molar concentration.

Consider the reported pIC50 for these compounds:
{"columns": ["chemical smiles", "pIC50"],
 "data": [
  ["CC1=C(O)/C(=C/[C@H](C)CC/C=C(/C)CCC/C=C(/C)CCc2ccoc2)OC1=O", 4.11],
  ["CO[C@@H]1OCC2=CC[C@@H]3[C@](C)(CC[C@H]4[C@@]3(C)CC[C@H]3C(C)(C)CCC[C@@]34CO)[C@H]21", 3.98]
]}

Note: attention shifts to another entry.
Data request: // pIC50 lookup, key: COC(=O)C1=CC[C@@H]2[C@](C)(CC[C@H]3[C@@]2(C)CC[C@H]2C(C)(C)CCC[C@@]23COC(C)=O)[C@H]1C=O
Data returned: 3.92
